These measurements were taken from patent US10766917B2.

Tested on: KG-1
Experiment: In vitro inhibition, CellTiter-Glo (CTG) assay
Type: cell-based
Conditions: Homo sapiens, KG-1, 72 h, 72 hr exposure
Procedure: Cells were grown in RPMI-1640 supplemented with L-Glutamine and 10% FBS of the following cell lines: CCRF-CEM; HL-60; KG-1; CFPAC-1; MiaPACA-2; BxPC-3; HepG2; MDA-MB-231; HCT-116; A498; and NCI-H69 […] At the end of the 72 hr exposure period, plates were removed for a CellTiter-Glo (CTG) assay from a 37° C., 5% CO2 incubator and placed on the bench at room temperature for 30 mins. […] Luminescence was recorded using Synergy 4.0.
# reported IC50; entries follow
RECORDED METRIC: IC50

• CCOC(=O)COP(=O)(N[C@@H](CC(C)C)C(=O)OCC)OC[C@H]1O[C@@H](n2ccc(N)nc2=O)C(F)(F)[C@@H]1O (single isomer, unassigned) [108 (diastereomer 1)] = < 1000 nM
• CC(C)OP1(=O)OC[C@H]2O[C@@H](n3ccc(N)nc3=O)C(F)(F)[C@@H]2O1 (single isomer, unassigned) [102 (diastereomer 2)] = < 1000 nM
• Nc1ccn([C@@H]2O[C@H](COP(=O)(O)NCc3ccccc3)[C@@H](O)C2(F)F)c(=O)n1 = < 1000 nM

* * *

tested on: HL-60; test: In vitro inhibition, CellTiter-Glo (CTG) assay; assay type: cell-based; settings: Homo sapiens, HL-60, 72 h, 72 hr exposure
RECORDED METRIC: IC50

- Cn1c(COP(=O)(NCc2ccccc2)OC[C@H]2O[C@@H](n3ccc(N)nc3=O)C(F)(F)[C@@H]2O)cnc1[N+](=O)[O-] (single isomer, unassigned) [112 (diastereomer 1)]: 1000 to 10000 nM
- Nc1ccn([C@@H]2O[C@H](COP(=O)(O)NCc3ccccc3)[C@@H](O)C2(F)F)c(=O)n1 [Compound 117]: < 1000 nM
- CCOC(=O)COP(=O)(N[C@@H](CC(C)C)C(=O)OCC)OC[C@H]1O[C@@H](n2ccc(N)nc2=O)C(F)(F)[C@@H]1O (single isomer, unassigned) [108 (diastereomer 1)]: < 1000 nM

* * *

Below, each of the compounds is paired with its reported pIC50 value.
tested on: MDA-MB-231; test: In vitro inhibition, CellTiter-Glo (CTG) assay; assay type: cell-based; details: Homo sapiens, MDA-MB-231, 72 hr exposure
pIC50: −log10 of the molar value.
RECORDED METRIC: pIC50

* CC(C)(C)C(=O)SCCOP1(=O)OC[C@H]2O[C@@H](n3ccc(N)nc3=O)C(F)(F)[C@@H]2O1 (single isomer, unassigned) [104 (diastereomer 1)] | 5.00 to 6.00
* CC(C)OP1(=O)OC[C@H]2O[C@@H](n3ccc(N)nc3=O)C(F)(F)[C@@H]2O1 (single isomer, unassigned) [102 (diastereomer 2)] | 4.00 to 5.00
* CC(C)C(=O)OC[C@@H](C)NP1(=O)OC[C@H]2O[C@@H](n3ccc(N)nc3=O)C(F)(F)[C@@H]2O1 (single isomer, unassigned) [105 (diastereomer 1)] | 4.00 to 5.00

* * *

test system: NCI-H69; assay: In vitro inhibition, CellTiter-Glo (CTG) assay; type: cell-based; conditions: Homo sapiens, NCI-H69, 72 h, 72 hr exposure
This section presents compounds with their documented IC50 values.
RECORDED METRIC: IC50

* CC(C)OP(=O)(OC[C@H]1O[C@@H](n2ccc(N)nc2=O)C(F)(F)[C@@H]1O)OC(C)C | 10 to 100 µM
* Cn1c(COP(=O)(NCc2ccccc2)OC[C@H]2O[C@@H](n3ccc(N)nc3=O)C(F)(F)[C@@H]2O)cnc1[N+](=O)[O-] (single isomer, unassigned) [112 (diastereomer 1)] | 10 to 100 µM
* CC(C)(C)SSCCOP(=O)(NCc1ccccc1)OC[C@H]1O[C@@H](n2ccc(N)nc2=O)C(F)(F)[C@@H]1O (single isomer, unassigned) [111 (diastereomer 1)] | 10 to 100 µM
* CCOC(=O)[C@H](CC(C)C)NP(=O)(O)OC[C@H]1O[C@@H](n2ccc(N)nc2=O)C(F)(F)[C@@H]1O | 1 to 10 µM
* COC(=O)[C@H](CC(C)C)NP(=O)(N[C@@H](CC(C)C)C(=O)OC)OC[C@H]1O[C@@H](n2ccc(N)nc2=O)C(F)(F)[C@@H]1O | 10 to 100 µM
* CCCC(CCC)C(=O)Nc1ccn([C@@H]2O[C@@H]3COP(=O)(N[C@H](C)C(=O)OC(C)C)O[C@H]3C2(F)F)c(=O)n1 (single isomer, unassigned) [116 (diastereomer 1)] | 10 to 100 µM
